Hey, just so you know, these numbers are from ChEMBL document CHEMBL1158926.

assay: Toxicity against Artemia salina; assay type: organism-based; details: in vivo, read-out: LD50 (the source's name)

| compound | LC50 (µg/mL) |
| --- | --- |
| CC1=C(O)/C(=C/[C@H](C)CC/C=C(/C)CCCc2coc(Cc3ccoc3)c2)OC1=O | 2.7 |
| C/C(=C\CCc1coc(Cc2ccoc2)c1)CCCC(C)CC(=O)C(O)C(C)Cl (centres undefined) | 8.2 |
| CC1=C(O)/C(=C/[C@H](C)CCC/C(C)=C/CCc2coc(Cc3ccoc3)c2)OC1=O | 2.4 |
| C/C(=C/CCC(C)CC(=O)C(O)C(C)Cl)CCCc1coc(Cc2ccoc2)c1 (centres undefined) | 8.6 |
